Target: PXR (NR1I2) (Homo sapiens, UniProt O75469)
Sequence (O75469 whole entry, the tested form may be a part): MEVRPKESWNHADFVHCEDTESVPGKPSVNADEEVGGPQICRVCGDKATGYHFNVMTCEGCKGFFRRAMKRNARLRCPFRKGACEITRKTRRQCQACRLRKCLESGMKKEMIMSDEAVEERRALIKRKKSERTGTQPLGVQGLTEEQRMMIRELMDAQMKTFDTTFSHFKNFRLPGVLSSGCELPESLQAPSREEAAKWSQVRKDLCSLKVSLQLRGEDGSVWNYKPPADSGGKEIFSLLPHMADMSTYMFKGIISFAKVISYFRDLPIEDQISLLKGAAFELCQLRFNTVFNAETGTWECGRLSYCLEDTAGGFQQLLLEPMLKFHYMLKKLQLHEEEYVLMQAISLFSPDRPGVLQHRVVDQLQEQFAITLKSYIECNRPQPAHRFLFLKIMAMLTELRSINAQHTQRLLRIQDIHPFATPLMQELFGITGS
Assay: […] at PXR LBD (unknown origin) expressed in HEK293 cells […] at 1 uM after 16 hrs by luciferase reporter gene assay relative to rifampicin
Assay type: ADME, cell-based
Conditions: HEK293 cells expressing PXR LBD, read-out: Efficacy
Attribute measured: Emax at 16 h, 1 µM (%)

Past entries and their recorded results:
Sample smiles | Uom | Emax at 16 h, 1 µM
C[C@H](NS(=O)(=O)c1ccc(-c2sc(C(=O)NCC(C)(C)O)nc2CC2CC(F)(F)C2)c2ccccc12)C(F)(F)F | % | 71
CC(C)(C)NS(=O)(=O)c1ccc(-c2sc(C(=O)N[C@H]3C[C@H](C(=O)O)C3)nc2CC2CCCCC2)c(Cl)c1Cl | % | 16
CCC(C)(C)NS(=O)(=O)c1ccc(-c2sc(C(=O)N[C@H]3C[C@H](C(=O)O)C3)nc2CC2CCCCC2)c(Cl)c1C | % | 21
CC(C)(C)NS(=O)(=O)c1ccc(-c2sc(C(=O)N[C@H]3C[C@H](C(=O)O)C3)nc2CC2CCCCC2)c(Cl)c1 | % | 101

a = C[C@H](NS(=O)(=O)c1ccc(-c2sc(C(=O)NCC(C)(C)O)nc2CC2CCC2)c(C(F)F)c1)C(F)(F)F
b = C[C@H](NC(=O)c1cc(-c2sc(C(=O)N[C@H]3C[C@H](C(=O)O)C3)nc2CC2CCCCC2)cc(C2(C#N)CC2)c1)C(F)(F)F
Look at a and b . Which one has the lower recorded Emax at 16 h, 1 µM number? Pick one and reply with its label. b

P = CCC(C)(C)NS(=O)(=O)c1ccc(-c2sc(C(=O)N[C@H]3C[C@H](C(=O)O)C3)nc2CC2CCCCC2)c2ccccc12
Q = C[C@H](NS(=O)(=O)c1ccc(-c2sc(C(=O)NCC(C)(C)O)nc2COC(C)(C)C)c(Cl)c1Cl)C(F)(F)F
R = C[C@H](NC(=O)c1cc(-c2sc(C(=O)N[C@H]3C[C@H](C(=O)O)C3)nc2CC2CCCCC2)cc(C2(C)CC2)c1)C(F)(F)F
Hey, quick one: sort these by Emax at 16 h, 1 µM, top value first please. Returns: the labels arranged in the requested order. P, Q, R
